molecular target: SARS-CoV-2 spike on whole virus (SARS-CoV-2/human/AUS/VIC01/2020, Victoria) (SARS-CoV-2, UniProt P0DTC2 14-1273); assay: cell-based or functional assay
Field: Neutralisation IC50 (FRNT). Provide a value for each of the binders that follow.
// return numeric value only (unit: µg/mL, not printed)

// recorded Neutralisation IC50 (FRNT) for mAb 159 (antibody, V domains shown) VH: EVQLVESGGGVVQPGRSLRLSCAASGFTFSSYGMHWVRQAPGKGLEWVALISYDGGNRYYADSVKGRFTISRDNSKNTLYLQMNRLRAEDTAMYYCAKDRDDGWDWYYFMDVWGKGTTVTVSS VL: DIQLTQSPGTLSLSPGERATLSCRASQSISGNYLAWYQHKPGQAPRLLIYGASTRATGIPDRFSGSGSGTDFTLTISRLEPEDFAVYYCQQYGSSYTFGQGTKVEIK : 0.005

// recorded Neutralisation IC50 (FRNT) for mAb 165 (antibody, V domains shown) VH: QVQLVQSGPEVKKPGTSVKVSCKASGFTFTSSAVQWVRQARGQRLEWIGWIVVGSGNTNYAQKFQESVTITRDMSTSTAYMELSSLRSEDTAVYYCAAPHCIGGSCHDAFDIWGQGTMVTVSS VL: DIVMTQSPGTLSLSPGERATLSCRASQSVRSSYLAWYQQKPGQAPRLLIYGASRRGTGIPDRFSGSGSGTDFTLTISRLEPEDFAVYYCQQYGSSPWTFGQGTKVEIK : 0.021

// recorded Neutralisation IC50 (FRNT) for mAb 158 (antibody, V domains shown) VH: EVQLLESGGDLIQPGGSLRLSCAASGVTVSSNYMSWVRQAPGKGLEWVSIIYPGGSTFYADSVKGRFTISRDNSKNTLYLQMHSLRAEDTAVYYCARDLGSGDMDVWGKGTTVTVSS VL: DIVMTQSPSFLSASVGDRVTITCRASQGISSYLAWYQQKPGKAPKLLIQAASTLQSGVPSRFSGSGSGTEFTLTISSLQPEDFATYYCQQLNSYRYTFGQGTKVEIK : 0.034

// recorded Neutralisation IC50 (FRNT) for mAb 222 (antibody, V domains shown) VH: EVQLVESGGGLIQPGGSLRLSCAASGLTVSSNYMSWVRQAPGKGLEWVSVIYSGGSTFYADSVKGRFTISRDNSKNTLYLQMNSLGAEDTAVYYCARGEGSPGNWFDPWGQGTLVTVSS VL: DVVMTQSPGTLSLSPGERATLSCRASQSVPSSYLAWYQQKPGQAPRLLIYGASTRATGIPDRFSGSGSGTDFTLTISRLEPEDFAVYYCQHYDTSPRFGGGTKVDIK : 0.016

// recorded Neutralisation IC50 (FRNT) for mAb 269 (antibody, V domains shown) VH: QVQLVESGGGLIQPGGSLRLSCAASGLTVNRNYMSWIRQAPGKGLEWVSVIYSGGSTFYADSVKGRFTISRDNSKNTLSLQMNSLRAEDTAIYYCARDFYEGSFDIWGQGTMVTVSS VL: AIQLTQSPSFLSASIGDRVTITCRASQGISSYLAWYQQKPGKAPKLLIYAASTLQSGVPSRFSGSGSGTEFTLTISSLQPEDFASYYCQQLNSYPAPVFGPGTKVDIK : 0.036

// recorded Neutralisation IC50 (FRNT) for mAb 318 (antibody, V domains shown) VH: QVQLVQSGPEVKKPGTSVKVSCKASGFTLTSSAMQWVRQARGQRLEWIGWIVVGSGNTNYAQKFQERVTITRDMSTSTAYMELSSLRSEDTAVYYCAAGRGYNSDFDYWGQGTLVTVSS VL: AIRMTQSPGTLSLSPGERATLSCRASQSVSSSYLAWYQQRPGQAPRLLIYGTSSRATGIPDRFSGSGSGTDFTLTISRLEPEDFAVYYCQQYGYSVYTFGQGTKVDIK : 0.015
